test system: T-47D breast; assay: NCI tumour cell line growth inhibition, 48 h
Reported GI50 values are given for each entry in this list.

Some compounds with recorded GI50:
| Compound | Subject Of Test | Outcome Measure | Reported Result |
| --- | --- | --- | --- |
| CN1CCN(C(=O)[C@@]2(C)CC[C@]3(C)CC[C@]4(C)C(=CC[C@@H]5[C@@]6(C)CC[C@H](OC(=O)c7cccnc7)C(C)(C)[C@@H]6CC[C@]54C)[C@@H]3C2)CC1 | T-47D breast | GI50 | 3.12 µM |
| CCN(CC)CCOc1ccc(NC(=O)C(C(C)C)N2C(=O)/C(=C/c3ccc(Br)cc3)SC2=S)cc1 (stereo not drawn) | T-47D breast | GI50 | 3.63 µM |
| Cn1c2ccccc2c2c(=O)n(CCCC(=O)NCCc3cnc[nH]3)c3c(-c4ccccc4)nnn3c21 | T-47D breast | GI50 | 10.4 µM |
| C=C1C(=O)O[C@H]2C3OC3(C)CC/C=C(/C(=O)OC)[C@@H](OC(C)=O)[C@H](OC(=O)C3(C)OC3C)[C@H]12 (stereo partly drawn) | T-47D breast | GI50 | 4.6 µM |
| COc1ccc(Cl)cc1Nc1nc(C(F)(F)F)ccc1C(=O)N/N=C/c1ccccc1Cl | T-47D breast | GI50 | 1.71 µM |
| CN(C)C[C@@H]1CCn2cc(c3ccccc32)C2=C(C(=O)NC2=O)c2cn(c3ccccc23)CCO1 | T-47D breast | GI50 | 0.828 µM |
| N#Cc1ccc(C(=O)c2cnn(-c3ccc(F)cc3)c2N)cc1 | T-47D breast | GI50 | > 25 µM |

In the following, a different compound is considered.
Please give the measured GI50 for this compound: O=C1c2c(c3c4ccccc4n(CCCCCCN4CCOCC4)c3c3[nH]c4ccccc4c23)C(=O)N1O
18.7 µM

---

test system: KM20L2 colon; experiment: NCI tumour cell line growth inhibition, 48 h
Reported TGI values are given for each entry in this list.

| Compound | Outcome Measure | Reported Result |
| --- | --- | --- |
| O=C(CO)CC(=O)C(=O)Nc1cccc(C(F)(F)F)c1 | TGI | > 100 µM |
| COc1cc(Cn2c3ccccc3c3cc(C)cc(OC)c32)cc2c1[nH]c1ccccc12 | TGI | > 25 µM |
| Cc1cc(N(CCC#N)CCC#N)ccc1/C=C(\N=[N+]=[N-])C(=O)NC(=O)COc1ccccc1 | TGI | > 100 µM |

Which TGI is reported with KM20L2 colon for this entry: Nc1nc(N)c(CCCCc2ccccc2)c(/C=C/c2ccc([N+](=O)[O-])cc2)n1 ?
20.6 µM

Which TGI is reported with KM20L2 colon for this entry: O=c1oc2c(O)c(O)cc3c(=O)oc4c(O)c(O)cc1c4c23 ?
> 100 µM

Which TGI is reported with KM20L2 colon for this entry: Cc1nc2c(n1Cc1ccc(F)cc1)C(=O)c1ccccc1C2=O ?
> 100 µM

Which TGI is reported with KM20L2 colon for this entry: CC(C)OP(=O)(OC(C)C)/C(=N/Nc1ccc([N+](=O)[O-])cc1)NNC(=O)c1ccccc1 ?
> 100 µM

Which TGI is reported with KM20L2 colon for this entry: CCOC(=O)C1=C(C)C2C3C(=O)OC(=O)C3C1(C)C1C(=O)OC(=O)C21 (stereo unspecified) ?
> 100 µM

Which TGI is reported with KM20L2 colon for this entry: N#CCCN(c1ccc(C=Nc2ccc(C(=O)O)cc2)cc1)S(=O)(=O)c1ccccc1 ?
> 100 µM

Which TGI is reported with KM20L2 colon for this entry: CCCCCC1CC(C(C)=O)CN1c1ccc(F)cc1 (stereo unspecified) ?
> 100 µM

Reference for the values: PubChem BioAssay (NCI)
